These entries and their values trace back to patent US20190062438A1.

// reported IC50 GM-CSF, TF-1 proliferation for each item listed
- TGT: T1, human CD131 (human, UniProt P32927 17-897)
- T1 sequence: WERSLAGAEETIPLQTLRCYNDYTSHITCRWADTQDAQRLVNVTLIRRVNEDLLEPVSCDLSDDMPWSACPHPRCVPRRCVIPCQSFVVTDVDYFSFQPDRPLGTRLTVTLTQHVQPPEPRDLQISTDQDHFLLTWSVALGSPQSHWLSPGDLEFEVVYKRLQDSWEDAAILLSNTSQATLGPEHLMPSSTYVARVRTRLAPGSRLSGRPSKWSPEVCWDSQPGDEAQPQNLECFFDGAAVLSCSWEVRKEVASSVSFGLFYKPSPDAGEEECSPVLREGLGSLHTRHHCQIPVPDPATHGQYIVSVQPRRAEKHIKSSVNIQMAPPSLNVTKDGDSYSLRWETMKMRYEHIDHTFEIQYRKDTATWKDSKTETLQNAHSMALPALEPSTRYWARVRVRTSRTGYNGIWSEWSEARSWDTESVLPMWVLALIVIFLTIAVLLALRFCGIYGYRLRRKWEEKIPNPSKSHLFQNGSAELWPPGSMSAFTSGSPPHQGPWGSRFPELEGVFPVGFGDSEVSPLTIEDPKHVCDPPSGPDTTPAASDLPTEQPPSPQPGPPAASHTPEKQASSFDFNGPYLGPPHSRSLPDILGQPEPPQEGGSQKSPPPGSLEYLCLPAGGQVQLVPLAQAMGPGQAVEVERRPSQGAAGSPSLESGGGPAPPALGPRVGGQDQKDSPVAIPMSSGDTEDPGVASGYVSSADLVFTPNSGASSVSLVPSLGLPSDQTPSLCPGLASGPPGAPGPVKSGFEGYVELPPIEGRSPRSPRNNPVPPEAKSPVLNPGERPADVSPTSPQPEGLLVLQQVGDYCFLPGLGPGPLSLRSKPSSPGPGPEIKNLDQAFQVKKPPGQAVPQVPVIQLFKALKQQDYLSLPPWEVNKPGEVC
- EXPERIMENT: cell-based or functional assay
PROPERTY MEASURED: IC50 GM-CSF, TF-1 proliferation (nM)

{"BINDER": "9A2-VR39.139 (antibody, V domains shown) VH: EVQLLESGGGLVQPGGSLRLSCAASPRWEWNYHMLWVRQAPGKGLEWVSSINGRGRVTYYADSVKGRFTISRDNSKNTLYLQMNSLRAEDTAVYYCARFYDSFFDIWGQGTMVTVSS VL: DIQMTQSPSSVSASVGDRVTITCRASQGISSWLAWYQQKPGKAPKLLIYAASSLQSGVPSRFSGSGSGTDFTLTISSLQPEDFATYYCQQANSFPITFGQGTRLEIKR", "PROPERTY MEASURED": "IC50 GM-CSF, TF-1 proliferation", "NUMERIC VALUE": 21.5}
{"BINDER": "9A2-VR39.116 (antibody, V domains shown) VH: EVQLLESGGGLVQPGGSLRLSCAASGFTFPWFVMVWVRQAPGKGLEWVSSINGRGRVTYYADSVKGRFTISRDNSKNTLYLQMNSLRAEDTAVYYCARFYDSFFDIWGQGTMVTVSS VL: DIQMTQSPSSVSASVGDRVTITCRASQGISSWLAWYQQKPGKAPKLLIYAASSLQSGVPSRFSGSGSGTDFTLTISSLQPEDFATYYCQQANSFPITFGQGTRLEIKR", "PROPERTY MEASURED": "IC50 GM-CSF, TF-1 proliferation", "NUMERIC VALUE": 7.93}
{"BINDER": "9A2-VR39.24 (antibody, V domains shown) VH: EVQLLESGGGLVQPGGSLRLSCAASGFTFHHFHVIWVRQAPGKGLEWVSSINGRGRVTYYADSVKGRFTISRDNSKNTLYLQMNSLRAEDTAVYYCARFYDSFFDIWGQGTMVTVSS VL: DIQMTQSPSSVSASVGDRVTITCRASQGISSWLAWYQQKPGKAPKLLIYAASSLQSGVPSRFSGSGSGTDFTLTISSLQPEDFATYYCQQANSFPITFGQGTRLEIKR", "PROPERTY MEASURED": "IC50 GM-CSF, TF-1 proliferation", "NUMERIC VALUE": 0.42}
{"BINDER": "9A2-VR39.105 (antibody, V domains shown) VH: EVQLLESGGGLVQPGGSLRLSCAASGFTFPYYHMIWVRQAPGKGLEWVSSINGRGRVTYYADSVKGRFTISRDNSKNTLYLQMNSLRAEDTAVYYCARFYDSFFDIWGQGTMVTVSS VL: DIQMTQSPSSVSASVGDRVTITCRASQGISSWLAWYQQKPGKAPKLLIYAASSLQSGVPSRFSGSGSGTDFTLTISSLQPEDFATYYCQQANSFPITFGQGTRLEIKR", "PROPERTY MEASURED": "IC50 GM-CSF, TF-1 proliferation", "NUMERIC VALUE": 0.53}
{"BINDER": "9A2-VR39.140 (antibody, V domains shown) VH: EVQLLESGGGLVQPGGSLRLSCAASAYSEMWYHMLWVRQAPGKGLEWVSSINGRGRVTYYADSVKGRFTISRDNSKNTLYLQMNSLRAEDTAVYYCARFYDSFFDIWGQGTMVTVSS VL: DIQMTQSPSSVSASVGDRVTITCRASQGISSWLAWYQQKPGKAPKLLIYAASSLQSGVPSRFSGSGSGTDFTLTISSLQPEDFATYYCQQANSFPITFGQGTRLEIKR", "PROPERTY MEASURED": "IC50 GM-CSF, TF-1 proliferation", "NUMERIC VALUE": 42.5}
